- ASSAY REMARKS: Selectivity index, ratio of […] for toxicity in human BEAS2B cells to MIC50 for antifungal activity against Aspergillus nidulans ATCC 38163
- Type: cell-based
- STATED CONDITIONS: BEAS-2B cells, read-out: Selectivity Index
Grouping key: selectivity ratio. Bins: class 0: < 20; class 1: ≥ 20 and < 60; class 2: ≥ 60

CCCCCC(O)(Cn1cncn1)c1ccc(Cl)cc1Cl (stereo not drawn) : class 2
CCCCCC(O)(Cn1cncn1)c1ccc(Cl)cc1 (stereo not drawn) : class 0
CCCCCCC(O)(Cn1cncn1)c1ccc(F)cc1F (stereo not drawn) : class 2
CCCCCCC(O)(Cn1cncn1)c1ccc(Cl)cc1Cl (stereo not drawn) : class 1
CCCCCCC(O)(Cn1cncn1)c1ccc(F)cc1 (stereo not drawn) : class 0
CCCCC(O)(Cn1cncn1)c1ccc(F)cc1F (stereo not drawn) : class 0
CCCCCC(O)(Cn1cncn1)c1ccccc1Cl (stereo not drawn) : class 1
CCCCCC(O)(Cn1cncn1)c1ccc(F)cc1 (stereo not drawn) : class 0
CCCC(O)(Cn1cncn1)c1ccc(Cl)cc1Cl (stereo not drawn) : class 0
CCCCCCC(O)(Cn1cncn1)c1ccccc1F (stereo not drawn) : class 2
CCCCC(O)(Cn1cncn1)c1ccc(Cl)cc1Cl (stereo not drawn) [HEXACONAZOLE] : class 2
CCCCCCC(O)(Cn1cncn1)c1ccccc1Cl (stereo not drawn) : class 2
CCCCCCC(O)(Cn1cncn1)c1ccc(Cl)cc1 (stereo not drawn) : class 0
